# system.tested: wt MPER peptide (HIV-1)
outcome.measure: koff

Task item: What does the record list as koff for 2F5 variant r4W2a (antibody, V domains shown) VH: RITLKESGPPLVKPTQTLTLTCSFSGFSLSDFGVGVGWIRQPPGKALEWLAIIYSDDDKRYSPSLNTRLTITKDTSKNQVVLVMTRVSPVDTATYFCAHRRGPLFGWWRGPVNAMDVWGQGITVTISS VL: ALQLTQSPSSLSASVGDRITITCRASQGVTSALAWYRQKPGSPPQLLIYDASSLESGVPSRFSGSGSGTEFTLTISTLRPEDFATYYCQQLHFYPHTFGGGTRVDVR ?
Reply: 0.00106 s⁻¹

Task item: Bench note: what koff did 2F5 variant r4WY (antibody, V domains shown) VH: RITLKESGPPLVKPTQTLTLTCSFSGFSLSDFGVGVGWIRQPPGKALEWLAIIYSDDDKRYSPSLNTRLTITKDTSKNQVVLVMTRVSPVDTATYFCAHRRGPLFGWYRGPVNAMDVWGQGITVTISS VL: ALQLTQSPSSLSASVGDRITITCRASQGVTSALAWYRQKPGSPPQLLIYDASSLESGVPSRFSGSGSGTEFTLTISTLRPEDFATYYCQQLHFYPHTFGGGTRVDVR show?
Reply: 0.00055 s⁻¹

Here's the next entry for you.
Task item: Given the binder 2F5 variant r6W (antibody, V domains shown) VH: RITLKESGPPLVKPTQTLTLTCSFSGFSLSDFGVGVGWIRQPPGKALEWLAIIYSDDDKRYSPSLNTRLTITKDTSKNQVVLVMTRVSPVDTATYFCAHRRGLFGWRGPVNAMDVWGQGITVTISS VL: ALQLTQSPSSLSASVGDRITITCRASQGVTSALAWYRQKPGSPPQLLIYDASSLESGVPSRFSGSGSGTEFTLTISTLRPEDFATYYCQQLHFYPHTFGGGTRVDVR , what is its reported koff?
Reply: 0.0224 s⁻¹
